# test.protocol: activity coefficient (dimensionless); of the first substance listed, at infinite dilution; xn = mol fraction of the nth substance listed
# condition.notes: 408.15 K; 101 kPa; Liquid; Chromatography; x1 = 0
Please note: activity coefficient exactly at 0.6 is n. Only values below 0.6 get y.

Lab log: compare recorded activity coefficient with 0.6; is it strictly lower for CC(C)(C)O [2-methylpropan-2-ol] + CCCCn1cc[n+](C)c1.CS(=O)(=O)[O-] ?
n

Given CC(C)CO [2-methyl-1-propanol] + CCCCn1cc[n+](C)c1.[Cl-] , is recorded activity coefficient strictly lower than 0.6?
y

Does the reported activity coefficient of CCCCO [butan-1-ol] + CCCCn1cc[n+](C)c1.COP(=O)([O-])OC stay below 0.6?
y

Record CC(C)O [propan-2-ol] + CCCCn1cc[n+](C)c1.[Cl-] : is its activity coefficient strictly below 0.6?
y

is_below(activity coefficient, 0.6) for O [water] + CCCCn1cc[n+](C)c1.[Cl-] ?
y

###

# test.protocol: activity coefficient (dimensionless); of the first substance listed, at infinite dilution; xn = mol fraction of the nth substance listed
# condition.notes: 418.15 K; 101 kPa; Liquid; Chromatography; x1 = 0
attribute.measured: activity coefficient
Lab note: write the figure by itself, no unit.

Specify reported activity coefficient for the compound shown: CCCO [propan-1-ol] + CCCCn1cc[n+](C)c1.COP(=O)([O-])OC
0.239

Return activity coefficient for the following compound: CO [methanol] + CCCCn1cc[n+](C)c1.COP(=O)([O-])OC
0.115

Quick one: give measured activity coefficient for O [water] + CCCCn1cc[n+](C)c1.COP(=O)([O-])OC
0.092

Entry CO [methanol] + CCCCn1cc[n+](C)c1.CS(=O)(=O)[O-] needs its activity coefficient filled in; supply it.
0.357

# return recorded activity coefficient for input CC(C)(C)O [2-methylpropan-2-ol] + CCCCn1cc[n+](C)c1.COP(=O)([O-])OC
0.527

Supply measured activity coefficient of CC(C)(C)O [2-methylpropan-2-ol] + CCCCn1cc[n+](C)c1.[Cl-] in your reply.
1.16

Find the measured activity coefficient of CCC(C)O (configuration not stated) [butan-2-ol] + CCCCn1cc[n+](C)c1.[Cl-] and report it.
0.865

Indicate its recorded activity coefficient; the compound in question is CCCCO [butan-1-ol] + CCCCn1cc[n+](C)c1.[Cl-]
0.635

Please give the documented activity coefficient of CCCCO [butan-1-ol] + CCCCn1cc[n+](C)c1.COP(=O)([O-])OC
0.299

Specify reported activity coefficient for the compound shown: CC(C)O [propan-2-ol] + CCCCn1cc[n+](C)c1.COP(=O)([O-])OC
0.311

Recall and state the measured activity coefficient for CC(C)CO [2-methyl-1-propanol] + CCCCn1cc[n+](C)c1.CS(=O)(=O)[O-] .
0.991

Fill in activity coefficient for record CCO [ethanol] + CCCCn1cc[n+](C)c1.COP(=O)([O-])OC
0.189

Let me know recorded activity coefficient for CO [methanol] + CCCCn1cc[n+](C)c1.[Cl-] , thanks.
0.176

Please indicate activity coefficient recorded for CC(C)CO [2-methyl-1-propanol] + CCCCn1cc[n+](C)c1.[Cl-]
0.615

Please give the documented activity coefficient of CC(C)O [propan-2-ol] + CCCCn1cc[n+](C)c1.[Cl-]
0.619

Specify measured activity coefficient for O [water] + CCCCn1cc[n+](C)c1.[Cl-] .
0.085

Look up and report measured activity coefficient for this entry: CCCCO [butan-1-ol] + CCCCn1cc[n+](C)c1.CS(=O)(=O)[O-]
1.02
